Assay: Cell Viability - N2a (AID 540);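 further: cells exposed to compound for 40 h at 37 °C; plate controls were DMSO alone for no effect and tamoxifen control for full effect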
Details: N2a mouse neuroblastoma cell viability; at 92.2 µM (top of the series)
Inconclusive results are not listed.
Would you kindly list activity change, negative = cytotoxicity for each of these compounds?
Value expressed in %; do not type the unit.

GET /value?item= Cc1ccc(N)c([N+](=O)[O-])c1 &field=activity change, negative = cytotoxicity returns 2.46

Consider OCCNCCO . Its measured activity change, negative = cytotoxicity is 6.19

// activity change, negative = cytotoxicity lookup, compound = COc1ccc(/C=C/c2cc(OC)cc(=O)o2)cc1 , result: -11.5

Notebook: Nc1ccc(Cl)cc1Cl , activity change, negative = cytotoxicity read as 7.32

Value of activity change, negative = cytotoxicity reported for the compound CC(C)=CCCC(C)CCO (stereo not given) is -9.36
